Values were extracted from the supplement of paper PMC8728848.

Experimental system: Fuc(a1-2)Gal(b1-4)GlcNAc(b1-6)GalNAc
Assay overview: glycan array binding signal (z-score within array); higher = stronger binding
Stated conditions: glycan notation: IUPAC condensed, linker removed
About 410 targets per protein were measured; listed, in parts, are those with the strongest signals and a random draw of the rest.
Would you kindly list glycan array binding signal (z-score) for each of these binders?
One number for each entry.

Example cases with answers are listed next.
MGL6A (Homo sapiens) (protein) MTRTYENFQYLENKVKVQGFKNGPLPLQSLLQRLCSGPCHLLLSLGLGLLLLVIICVVGFQNSKFQRDLVTLRTDFSNFTSNTVAEIQALTSQGSSLEETIASLKAEVEGFKQERQAVHSEMLLRVQQLVQDLKKLTCQVATLNNNGEEASTEGTCCPVNWVEHQDSCYWFSHSGMSWAEAEKYCQLKNAHLVVINSREEQNFVQKYLGSAYTWMGLSDPEGAWKWVDGTDYATGFQNWKPGQPDDWQGHGLGGGEDCAHFHPDGRWNDDVCQRPYHWVCEAGLGQTSQESH | 4.02
Mermaid1 (Stilbonema majum) (protein) MGSSHHHHHHSSGLVPRGSHMAASGWLRSPQGTVVKLYRRSLSWSKADEFCKDVDGRLVVDRTADMHLFLIKNVLKEKKSRVWVGLRRTAPHSRTWIWSDGTRQNEDDLDANLWLRDEPNDAAGEEECALFMYSPWEKAWGLNDYLCRGGCRSYQFICEKWIR | -0.219

We next turn to a different binder, shown below.
I'd like to know its glycan array binding signal (z-score). The binder in question is DrGal3 (Danio rerio) (protein) MDLSDALDAPPQQNNQQAGGPVWPGQPANPVWPGQPANPTWPGQPNQPAWPGQPNQQWPGQPGQPTAPGWPGPAPQTGPYGAPGQAPQVLTVPLDFPLQNGAYNKMLITINGEVKPNAKQFTVNLRRGNDIAFHINPRFSEGGKPVIVRNSMIGNNWGREERELPSFPFVPGKPFEMKILITDTEYKVAVNKSHLLEFKHRVFELNQITGLSIYNDVTLSTVNVETLQ
-0.25
